Target: T1, Atg8 (1-116) K26P, P38182
T1 chain: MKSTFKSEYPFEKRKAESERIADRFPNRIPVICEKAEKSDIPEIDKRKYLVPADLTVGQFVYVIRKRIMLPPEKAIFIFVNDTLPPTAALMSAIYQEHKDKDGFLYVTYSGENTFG
Assay: ITC
Details: chain shown with the change; Atg8 (1.8 mM)
MEASURED_PARAMETER: pKd
# pKd = -log10(concentration in molar units)

input: Find the recorded pKd belonging to EFPNDYAFMEAILDET [Atg40^237–252 peptide, Q99325 D243A; D247A] and report it.
output: 4.08

Reference source: paper PMC7335187
